target: Beta-3 adrenergic receptor (Homo sapiens); assay: In vitro agonistic activity against cloned human beta-3 adrenergic receptor […] increase in cAMP in CHO cells
Sequence (P13945 whole entry): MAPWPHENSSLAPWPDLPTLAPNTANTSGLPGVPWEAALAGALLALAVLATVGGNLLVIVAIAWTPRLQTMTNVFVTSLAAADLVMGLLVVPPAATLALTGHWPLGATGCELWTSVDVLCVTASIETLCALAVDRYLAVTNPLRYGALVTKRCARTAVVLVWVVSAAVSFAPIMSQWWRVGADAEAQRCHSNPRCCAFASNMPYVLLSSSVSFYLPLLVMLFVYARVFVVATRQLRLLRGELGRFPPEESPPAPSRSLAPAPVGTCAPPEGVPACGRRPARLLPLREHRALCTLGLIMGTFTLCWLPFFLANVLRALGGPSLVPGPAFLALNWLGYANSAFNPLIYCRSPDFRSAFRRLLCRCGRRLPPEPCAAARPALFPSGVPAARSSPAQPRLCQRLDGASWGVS
readout.label: EC50 (nM)

stdin: For `O=S(=O)(Nc1ccc(CCNC[C@H](O)COc2ccc(O)cc2)cc1)c1ccc2c(c1)CCN2` , what is its reported EC50?
stdout: 0.65

stdin: Okay, and `CCCCCCN(C)C(=O)N1CCc2cc(S(=O)(=O)Nc3ccccc3)ccc21` ?
stdout: 47

stdin: Okay, and `CCCCCCc1cccc(N2CCc3cc(S(=O)(=O)Nc4ccccc4)ccc32)c1` ?
stdout: 1.8

stdin: Okay, and `CCCCCCCCc1cccc(N2CCc3cc(S(=O)(=O)Nc4ccccc4)ccc32)c1` ?
stdout: 1.3

stdin: Okay, and `O=S(=O)(Nc1ccccc1)c1ccc2c(c1)CCN2c1cccc(CCCC2CCCC2)c1` ?
stdout: 5

stdin: Okay, and `CN(CCc1ccccc1)C(=O)N1CCc2cc(S(=O)(=O)Nc3ccccc3)ccc21` ?
stdout: 55

[1] CCCCCCc1ccc(N2CCc3cc(S(=O)(=O)Nc4ccccc4)ccc32)nc1
[2] CNC(=O)N1CCc2cc(S(=O)(=O)Nc3ccccc3)ccc21
stdin: Pick one: 1 or 2 . Which one has the lower reported EC50? Lab log: write the label of the selected item as the result.
stdout: 1
(1: 1.6 nM, 2: 55 nM)

[I] CCCCCCNC(=O)N1CCc2cc(S(=O)(=O)Nc3ccccc3)ccc21
[II] CCCCCCCCc1cnc(N2CCc3cc(S(=O)(=O)Nc4ccccc4)ccc32)o1
stdin: Pick one: I or II . Which one has the lower reported EC50? Lab log: write the label of the selected item as the result.
stdout: II
(II: 3.7 nM, I: 6.9 nM)
